Listing: Efficacy of selected molecules
# TGT: Sulfonylurea receptor 2, Kir6.2 (Homo sapiens) (UniProt Q14654+O60706)
# ASSAY REMARKS: Ability to open human urinary bladder Kir6.2 containing SUR2B in Ltk cells by FLIPR assay relative to P1075
# Format: functional, cell-based
MEASURE: Efficacy (%)

CCC[C@H]1OC(O)=C2C1=NC1=C(C(=O)COC1)[C@H]2c1ccc(Cl)c(Cl)c1 (stereo in doubt; 42a) = 87
C[C@H]1C2=C(C(=O)N1C)[C@H](c1ccc(F)c(Br)c1)C1=C(COCC1=O)N2 (relative stereo) = 102
CC[C@H]1OCC(O)=C2C1=NC1=C(C(=O)COC1)[C@H]2c1ccc(F)c(Cl)c1 (stereo in doubt; 72a) = 66
CC[C@@H]1OCC2=C(C1=O)[C@@H](c1ccc(F)c(Br)c1)C1=C(O)OCC1=N2 (stereo in doubt; 10b) = 46
CC[C@H]1OCC(O)=C2C1=NC1=C(C(=O)COC1)[C@H]2c1ccc(Br)c(Br)c1 (racemic) = 76
CCCC[C@@H]1OC(O)=C2C1=NC1=C(C(=O)COC1)[C@H]2c1ccc(F)c(Br)c1 (relative stereo) = 67
CC[C@@H]1OC(O)=C2C1=NC1=C(C(=O)COC1)[C@H]2c1ccc(F)c(Br)c1 (racemic) = 74
C[C@@H]1OC(O)=C2C1=NC1=C(C(=O)COC1)[C@H]2c1ccc(F)c(Br)c1 (stereo in doubt; 17b) = 89
CC[C@H]1OC(O)=C2C1=NC1=C(C(=O)COC1)[C@H]2c1ccc(F)c(Br)c1 (stereo in doubt; 21b) = 46
C[C@H]1OC(=O)C2=C1NC1=C([C@H]2c2ccc(F)c(Br)c2)S(=O)(=O)CC1 (relative stereo) = 86
C[C@@H]1OC(O)=C2C1=NC1=C(C(=O)COC1)[C@H]2c1ccc(F)c(Br)c1 (stereo in doubt; 17a) = 105
CC[C@H]1OCC2=C(C1=O)[C@@H](c1ccc(F)c(Br)c1)C1=C(O)OCC1=N2 (racemic) = 97
C[C@@H]1OCC2=C(C1=O)[C@H](c1ccc(F)c(Br)c1)C1=C(O)OCC1=N2 (racemic) = 104
CCC[C@H]1OC(O)=C2C1=NC1=C(C(=O)COC1)[C@H]2c1ccc(Cl)c(Cl)c1 (racemic) = 95
CCC[C@@H]1OC(O)=C2C1=NC1=C(C(=O)COC1)[C@H]2c1ccc(F)c(Br)c1 (racemic) = 90
CC[C@H]1OCC(O)=C2C1=NC1=C(C(=O)COC1)[C@H]2c1ccc(C)c(Br)c1 (racemic) = 70
